# System: SARS-CoV-2 (D614G strain)
# Type: cell-based
# measurement conditions: read-out: EC50, replication of SARS-CoV-2
property name: EC50 (nM)

>>> print(df.to_string())
                                   compound  recorded_result
0  O=C(Nc1ccc([N+](=O)[O-])cc1Cl)c1cc(Cl)ccc1O [niclosamide ethanolamine]              100
